Item-by-item account of normalized growth
Assay: chemical genetic growth profiling, strain panel (AID 1159580);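 also: tested at 20 µM; growth read once vehicle control cultures reached saturation at 30 °C; 1 = growth at the plate median or of vehicle wells; lower values mean less growth of the strain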
Settings: S. cerevisiae deletion strains, growth OD, locus YPR025C, strain CCL1, active compounds read low
The whole screen tested about 5,500 compounds, of which about 2,000 (36%) were called active. Roughly 18% stayed inconclusive and do not appear here. This is one part of the list.
Give a plain numeric answer without units written out.

MOLECULE: O=C1c2ccccc2O[C@@H](c2ccccc2)[C@@H]1NCc1ccccc1
normalized growth: 0.922
--
MOLECULE: Cc1ccc(C(O)(c2ccccc2)c2ccccc2)c2ccccc12
normalized growth: 0.99
--
MOLECULE: CCC(C)COC(=O)/C=C/c1ccc(N=Cc2ccc(OC)cc2)cc1 (stereo unspecified)
normalized growth: 0.968
--
MOLECULE: O=C1c2ccccc2O[C@@H](c2ccccc2)[C@@H]1NC1CCCCC1
normalized growth: 0.914

## Task Give me measured normalized growth, please, for this molecule: COc1ccc(C2CC(c3ccccc3)=Nc3ccccc3S2)cc1OC (stereo unspecified)
## Result 0.966

## Task Look up normalized growth of Cc1csc2ncnc(N/N=C\c3ccccc3Cl)c12 and report it.
## Result 0.968
